target or test system: mu opiate receptor (MOR) (Rattus norvegicus, UniProt P33535)
Construct: from tissue; host or cells: striatal tissue (membrane preparation)
Sequence (P33535 whole entry): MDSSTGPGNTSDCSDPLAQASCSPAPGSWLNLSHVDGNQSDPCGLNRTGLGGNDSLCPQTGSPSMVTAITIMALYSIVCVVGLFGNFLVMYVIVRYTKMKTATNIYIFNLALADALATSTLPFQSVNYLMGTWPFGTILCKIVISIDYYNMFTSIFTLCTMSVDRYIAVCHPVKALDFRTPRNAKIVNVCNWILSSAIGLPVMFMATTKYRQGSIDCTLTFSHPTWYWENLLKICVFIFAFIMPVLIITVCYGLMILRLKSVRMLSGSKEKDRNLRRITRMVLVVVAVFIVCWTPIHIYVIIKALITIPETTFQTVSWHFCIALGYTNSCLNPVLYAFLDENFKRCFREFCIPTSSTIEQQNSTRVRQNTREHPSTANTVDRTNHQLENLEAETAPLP
test description: [35S]GTPγS binding assay using striatal membranes (MOR agonist activity)
Format: biochemical
Set-up: reference not given here
assay context: 1 μM compound + 1 μM β-funaltrexamine
readout label: MOR agonist activity, [35S]GTPγS binding to Gαo, 1 μM + BFNA (%)
// units = %; emit number, no label

Field: example entries. Status: answers known.
- compound: "COc1c2c(cc3c1C(CC(=O)Cc1ccccc1C)[N+](C)(C)CC3)OCO2 (stereo not drawn)"
  result value: 28.8
- compound: "COc1ccc(C(=O)CC2c3c(cc4c(c3OC)OCO4)CC[N+]2(C)C)c(O)c1.[I-] (stereo not drawn)"
  result value: 41.9
- compound: "COc1cc(C(=O)CC2c3c(cc4c(c3OC)OCO4)CC[N+]2(C)C)cc(OC)c1OC (stereo not drawn)"
  result value: 106.2
- compound: "COc1ccccc1CC(=O)CC1c2c(cc3c(c2OC)OCO3)CC[N+]1(C)C (stereo not drawn)"
  result value: 87.5
- compound: "COc1c2c(cc3c1C(CC(=O)c1ccncc1)[N+](C)(C)CC3)OCO2 (stereo not drawn)"
  result value: 45.1
- compound: "COc1ccccc1CC(O)CC1c2c(cc3c(c2OC)OCO3)CC[N+]1(C)C.[I-] (stereo not drawn)"
  result value: 15.6
- compound: "COc1c2c(cc3c1C(CC(=O)c1ccc(N4CCOCC4)cc1)[N+](C)(C)CC3)OCO2 (stereo not drawn)"
  result value: 72.0
- compound: "COc1cc(CC(=O)CC2c3c(cc4c(c3OC)OCO4)CC[N+]2(C)C)cc(OC)c1OC (stereo not drawn)"
  result value: 46.0

QUERY: For the compound shown here, COc1c2c(cc3c1C(CC(=O)Cc1ccc(Br)cc1)[N+](C)(C)CC3)OCO2 (stereo not drawn) , give the reported MOR agonist activity, [35S]GTPγS binding to Gαo, 1 μM + BFNA.
RESULT: 78.0

QUERY: So what's the measured MOR agonist activity, [35S]GTPγS binding to Gαo, 1 μM + BFNA for this one? COc1c2c(cc3c1C(CC(=O)Cc1ccccc1Cl)[N+](C)(C)CC3)OCO2.[I-] (stereo not drawn)
RESULT: 78.3

QUERY: # lookup: MOR agonist activity, [35S]GTPγS binding to Gαo, 1 μM + BFNA of COc1cc(OC)cc(C(=O)CC2c3c(cc4c(c3OC)OCO4)CC[N+]2(C)C)c1.[I-] (stereo not drawn)
RESULT: 74.2

QUERY: I'd like to know its MOR agonist activity, [35S]GTPγS binding to Gαo, 1 μM + BFNA. The compound in question is COc1c2c(cc3c1C(CC(=O)c1ccc(C#N)cc1)[N+](C)(C)CC3)OCO2 (stereo not drawn)
RESULT: 28.0

QUERY: Please give the measured MOR agonist activity, [35S]GTPγS binding to Gαo, 1 μM + BFNA for this compound: COc1ccc(C(=O)CC2c3c(cc4c(c3OC)OCO4)CC[N+]2(C)C)cc1C.[I-] (stereo not drawn)
RESULT: 42.9

Hello, the source for this data is patent US20100280061A1, in case you need it.
